# excess molar enthalpy values compiled below
Assay comment: excess molar enthalpy (molar enthalpy of mixing); xn = mol fraction of the nth substance listed
Condition: 298.15 K; 101.33 kPa; Liquid; x1 = 0.3
Observable: excess molar enthalpy (kcal/mol)

compound="COC(F)(F)C(F)(F)C(F)(F)C(F)(F)F [1-methoxy-nonafluorobutane] + CCCCOCCO" observable="excess molar enthalpy" reading_unit=kcal/mol readout_value=0.157
compound="COC(F)(F)C(F)(F)C(F)(F)C(F)(F)F [1-methoxy-nonafluorobutane] + COCCO" observable="excess molar enthalpy" reading_unit=kcal/mol readout_value=0.119
compound="COC(F)(F)C(F)(F)C(F)(F)C(F)(F)F [1-methoxy-nonafluorobutane] + CCOCCO" observable="excess molar enthalpy" reading_unit=kcal/mol readout_value=0.117
compound="COC(F)(F)C(F)(F)C(F)(F)C(F)(F)F [1-methoxy-nonafluorobutane] + COCCOCCOC" observable="excess molar enthalpy" reading_unit=kcal/mol readout_value=0.0915

Data origin, for the record: the NIST ThermoML archive (doi:10.1016/j.jct.2005.02.011)
